tested on: Escherichia coli; test: Antibacterial activity against Escherichia coli at 37 degC measured after 24 hrs by agar disc diffusion method; type: functional; also: test concentration or dose not given here
Recorded measurements of diameter of the inhibition zone (DIZ), one per entry
MEASURED_QUANTITY: diameter of the inhibition zone (DIZ) (mm)

* COc1cc(/C=N/NC(=O)CN2CCN(c3cc4c(cc3F)c(=O)c(C(=O)O)cn4C3CC3)CC2)cc(OC)c1OC | 20
* O=C(CN1CCN(c2cc3c(cc2F)c(=O)c(C(=O)O)cn3C2CC2)CC1)N/N=C/c1ccccc1C(F)(F)F | 26
* O=C(CN1CCN(c2cc3c(cc2F)c(=O)c(C(=O)O)cn3C2CC2)CC1)N/N=C/c1ccc(Cl)cc1 | 28
* O=C(CN1CCN(c2cc3c(cc2F)c(=O)c(C(=O)O)cn3C2CC2)CC1)N/N=C/c1ccccc1O | 16
* O=C(CN1CCN(c2cc3c(cc2F)c(=O)c(C(=O)O)cn3C2CC2)CC1)N/N=C/c1ccccc1F | 26
* O=C(CN1CCN(c2cc3c(cc2F)c(=O)c(C(=O)O)cn3C2CC2)CC1)N/N=C/c1c[nH]c2ccccc12 | 31
* O=C(CN1CCN(c2cc3c(cc2F)c(=O)c(C(=O)O)cn3C2CC2)CC1)N/N=C/c1ccc(F)cc1 | 17
* O=C(CN1CCN(c2cc3c(cc2F)c(=O)c(C(=O)O)cn3C2CC2)CC1)N/N=C/c1ccco1 | 28
* O=C(CN1CCN(c2cc3c(cc2F)c(=O)c(C(=O)O)cn3C2CC2)CC1)N/N=C/c1ccc(O)cc1O | 20
* O=C(CN1CCN(c2cc3c(cc2F)c(=O)c(C(=O)O)cn3C2CC2)CC1)N/N=C/c1ccncc1 | 28
* COc1cc(/C=N/NC(=O)CN2CCN(c3cc4c(cc3F)c(=O)c(C(=O)O)cn4C3CC3)CC2)ccc1O | 18
* O=C(O)c1cn(C2CC2)c2cc(N3CCNCC3)c(F)cc2c1=O [CIPROFLOXACIN] | 33
* O=C(CN1CCN(c2cc3c(cc2F)c(=O)c(C(=O)O)cn3C2CC2)CC1)N/N=C/c1cc2ccccc2[nH]1 | 25
* O=C(CN1CCN(c2cc3c(cc2F)c(=O)c(C(=O)O)cn3C2CC2)CC1)N/N=C/c1ccccc1Cl | 19
* O=C(CN1CCN(c2cc3c(cc2F)c(=O)c(C(=O)O)cn3C2CC2)CC1)N/N=C/c1cccnc1 | 29
* O=C(CN1CCN(c2cc3c(cc2F)c(=O)c(C(=O)O)cn3C2CC2)CC1)N/N=C/c1cccs1 | 24
* COc1ccc(/C=N/NC(=O)CN2CCN(c3cc4c(cc3F)c(=O)c(C(=O)O)cn4C3CC3)CC2)cc1 | 24
* O=C(O)c1cn(C2CC2)c2cc(N3CCN(Cc4nnc(S)o4)CC3)c(F)cc2c1=O | 25
* NNC(=O)CN1CCN(c2cc3c(cc2F)c(=O)c(C(=O)O)cn3C2CC2)CC1 | 28

----------
Recorded measurements of pIC50, one per entry
test system: MDA-MB-468; experiment: Antiproliferative activity against human MDA-MB-468 cells after 48 hrs by MTT assay; type: functional, cell-based; settings: MDA-MB-468, 48 h
pIC50: −log10 of the molar value.
MEASURED_QUANTITY: pIC50

* O=C(CN1CCN(c2cc3c(cc2F)c(=O)c(C(=O)O)cn3C2CC2)CC1)N/N=C/c1ccccc1C(F)(F)F | 5.67
* COc1cccc2c1C(=O)c1c(O)c3c(c(O)c1C2=O)C[C@@](O)(C(=O)CO)C[C@@H]3O[C@H]1C[C@H](N)[C@H](O)[C@H](C)O1 [DOXORUBICIN] | 5.55
